Value source: paper PMC8343220

# Study System: human α1D‐adrenoceptor (full length) (Homo sapiens, UniProt P25100)
# Construct: human α1D‐adrenoceptor (full length) were used; expressed in transfected cells; host or cells: CHO-K1
# Sequence (P25100 1-572): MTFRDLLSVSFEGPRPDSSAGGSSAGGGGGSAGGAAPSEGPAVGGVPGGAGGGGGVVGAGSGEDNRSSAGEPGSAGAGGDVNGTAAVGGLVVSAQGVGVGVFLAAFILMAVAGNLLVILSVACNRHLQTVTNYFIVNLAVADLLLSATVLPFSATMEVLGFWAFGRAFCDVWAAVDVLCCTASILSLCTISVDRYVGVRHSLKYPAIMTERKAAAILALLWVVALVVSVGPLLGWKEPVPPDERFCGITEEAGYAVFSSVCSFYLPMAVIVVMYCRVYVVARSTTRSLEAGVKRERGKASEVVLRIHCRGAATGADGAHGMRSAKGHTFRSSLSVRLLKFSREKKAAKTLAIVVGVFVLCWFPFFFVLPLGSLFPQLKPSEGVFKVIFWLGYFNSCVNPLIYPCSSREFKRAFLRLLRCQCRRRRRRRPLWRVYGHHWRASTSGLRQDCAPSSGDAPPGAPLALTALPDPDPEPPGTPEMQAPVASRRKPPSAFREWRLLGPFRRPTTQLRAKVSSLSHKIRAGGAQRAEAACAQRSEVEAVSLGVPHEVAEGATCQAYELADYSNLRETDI
# Method: Intracellular free calcium mobilization, CHO‐α1D cells
# Type: cell-based
# Experimental Context: CHO‐α1D cells; log values given negative
Readout Label: Intracellular calcium release Log EC50

Worked cases, answers included:
| Compound | Intracellular calcium release Log EC50 |
| --- | --- |
| CC(C)(C)NCC(O)COc1cccc2[nH]c(=O)[nH]c12 (centres unmarked) [CGP 12177] | No response |
| Brc1c(NC2=NCCN2)ccc2nccnc12 [UK14304] | No response |
| CCc1cccc(CC)c1NC1=NCCN1 [ST‐91] | −6.34 ± 0.15 |
| CS(=O)(=O)Nc1c(O)ccc2c1CCCC2C1=NCCN1 (centres unmarked) [A61603] | −5.29 ± 0.12 |
| COc1ccc(OC)c(C(O)CNC(=O)CN)c1 (centres unmarked) [Midodrine] | No response |
| CCC1(c2cnc[nH]2)Cc2ccccc2C1 [Atipamezole] | No response |
| COCc1c(Cl)ccc2c1CC[C@H]2c1ncc[nH]1 [PF3774076] | No response |
| O=C1Cc2cc(CCN3CCN(c4nsc5ccccc45)CC3)c(Cl)cc2N1 [Ziprasidone] | No response |
| OCc1cc(C(O)CNCCCCCCOCCCCc2ccccc2)ccc1O (centres unmarked) [Salmeterol] | No response |
| Cc1sc(C)c2c1CCC=C2c1cnc[nH]1.O=C(O)/C=C\C(=O)O [T‐CG 1000] | No response |

Could you report Intracellular calcium release Log EC50 for every entry in the following list?
1. C1=C(c2cnc[nH]2)c2ccsc2CC1 [RWJ52353]
2. Brc1c(NC2=NCCN2)ccc2nccnc12 [Brimonidine]
3. c1ccc(C2CC2)c(OCC2=NCCN2)c1 [Cirazoline]
4. CC(C)(C)NCC(O)c1ccc(O)c(CO)c1 (centres unmarked) [Salbutamol]
5. C=CCN1CCc2nc(N)sc2CC1 [BHT920]
6. C[C@](N)(Cc1ccc(O)c(O)c1)C(=O)O [Methyldopa]
7. CCN1CCc2nc(N)oc2CC1 [BHT933]

Out:
1. No response
2. No response
3. −6.90 ± 0.09
4. No response
5. No response
6. No response
7. No response
